- System: S. aureus 101
- test method notes: MIC determination
- Assay type: cell-based, Staphylococcus aureus
- test settings: Staphylococcus aureus, 101, 18 h; read-out: Minimum inhibitory concentrations (MIC)
I'd be grateful if you could share measured MIC for these entries.
Give bare numbers, in µg/mL.

INSERT INTO results (substance_smiles, unit_descriptor, measured_result) VALUES
  ('CO[C@H]1/C=C/O[C@@]2(C)Oc3c(C)c(O)c4c(O)c(c(/C=N/N5CCN(C)CC5)c(O)c4c3C2=O)NC(=O)/C(C)=C\C=C\[C@H](C)[C@H](O)[C@@H](C)[C@@H](O)[C@@H](C)[C@H](OC(C)=O)[C@@H]1C', 'µg/mL', 0.031);

Sample CC(=O)O[C@H]1C[C@@]2(C)[C@@H](C[C@@H](O)[C@H]3[C@@]4(C)CC[C@@H](O)[C@@H](C)[C@@H]4CC[C@@]32C)/C1=C(\CCC=C(C)C)C(=O)O — what was its MIC?
0.125

====

I'd be grateful if you could share measured MIC for these entries.
- Test system: S. aureus 101
- test method notes: MIC determination
- Type: cell-based, Staphylococcus aureus
- test settings: Staphylococcus aureus, 101, 18 h; read-out: Minimum inhibitory concentrations (MIC)
Give bare numbers, in µg/mL.

INSERT INTO assay_data (compound, endpoint_label, unit_descriptor, measured_result) VALUES
  ('CCn1cc(C(=O)O)c(=O)c2cc(F)c(N3CCNC(C)C3)c(F)c21 (stereo not shown)', 'MIC', 'µg/mL', 128),
  ('C[C@H]1c2cccc(O)c2C(=O)C2=C(O)[C@]3(O)C(=O)C(C(N)=O)=C(O)[C@@H](N(C)C)[C@@H]3[C@@H](O)[C@@H]21', 'MIC', 'µg/mL', 16),
  ('COc1cc(Cc2cnc(N)nc2N)c2c(c1OC)OC(C1CC1)C=C2 (racemic)', 'MIC', 'µg/mL', 1);

Moving on to the next compound.
Sample Cc1onc(-c2ccccc2Cl)c1C(=O)N[C@@H]1C(=O)N2[C@@H]1SC(C)(C)[C@@H]2C(=O)O — what was its MIC?
2

====

- System: S. pneumoniae 1/1
- test method notes: MIC determination
- Assay type: cell-based, Streptococcus pneumoniae
- test settings: Streptococcus pneumoniae; S. pneumoniae 1/1; 18 hours at 37° C., 5% CO2; read-out: Minimum inhibitory concentrations (MIC)
- Protocol: Minimum inhibitory concentration (MIC) determination. In order to choose the appropriate concentrations to be tested in the checkerboard experiments, minimum inhibitory concentrations (MICs) were determined first. […] Table 6) in microtiter plates. […] The MIC was determined as the lowest concentration of an individual drug that lead to no visible growth.
endpoint label: MIC

// known answers, use as guide
INSERT INTO assay_data (compound, measured_result) VALUES
  ('Cc1onc(-c2ccccc2)c1C(=O)N[C@@H]1C(=O)N2[C@@H]1SC(C)(C)[C@@H]2C(=O)O', '32 µg/mL'),
  ('CO[C@H]1/C=C/O[C@@]2(C)Oc3c(C)c(O)c4c(O)c(c(/C=N/N5CCN(C)CC5)c(O)c4c3C2=O)NC(=O)/C(C)=C\C=C\[C@H](C)[C@H](O)[C@@H](C)[C@@H](O)[C@@H](C)[C@H](OC(C)=O)[C@@H]1C', '0.063 µg/mL'),
  ('Cc1cc(NS(=O)(=O)c2ccc(N)cc2)no1 [Sulfamethoxazole, N1-(5-methyl-3-isoxazolyl)sulfanilamide]', '> 128 µg/mL'),
  ('CC1(C)S[C@@H]2[C@H](NC(=O)[C@H](N)c3ccccc3)C(=O)N2[C@H]1C(=O)O', '16 µg/mL');

Record MIC per entry; entries follow.
1. CO[C@@]1(NC(=O)C(C(=O)O)c2ccc(O)cc2)C(=O)N2C(C(=O)O)=C(CSc3nnnn3C)CO[C@@H]21 (some centres unmarked)
2. CC(=O)O[C@H]1C[C@@]2(C)[C@@H](C[C@@H](O)[C@H]3[C@@]4(C)CC[C@@H](O)[C@@H](C)[C@@H]4CC[C@@]32C)/C1=C(\CCC=C(C)C)C(=O)O
3. CN(C)[C@@H]1C(O)=C(C(N)=O)C(=O)[C@@]2(O)C(O)=C3C(=O)c4c(O)cccc4[C@@](C)(O)[C@H]3C[C@@H]12
4. CCC[C@@H]1C[C@@H](C(=O)N[C@@H]([C@H]2O[C@H](SC)[C@H](O)[C@@H](O)[C@H]2O)[C@H](C)Cl)N(C)C1

1: 4 µg/mL; 2: 8 µg/mL; 3: 16 µg/mL; 4: 0.125 µg/mL
